biological target: UniProt P56524
Sequence (P56524 627-1084 limits assumed): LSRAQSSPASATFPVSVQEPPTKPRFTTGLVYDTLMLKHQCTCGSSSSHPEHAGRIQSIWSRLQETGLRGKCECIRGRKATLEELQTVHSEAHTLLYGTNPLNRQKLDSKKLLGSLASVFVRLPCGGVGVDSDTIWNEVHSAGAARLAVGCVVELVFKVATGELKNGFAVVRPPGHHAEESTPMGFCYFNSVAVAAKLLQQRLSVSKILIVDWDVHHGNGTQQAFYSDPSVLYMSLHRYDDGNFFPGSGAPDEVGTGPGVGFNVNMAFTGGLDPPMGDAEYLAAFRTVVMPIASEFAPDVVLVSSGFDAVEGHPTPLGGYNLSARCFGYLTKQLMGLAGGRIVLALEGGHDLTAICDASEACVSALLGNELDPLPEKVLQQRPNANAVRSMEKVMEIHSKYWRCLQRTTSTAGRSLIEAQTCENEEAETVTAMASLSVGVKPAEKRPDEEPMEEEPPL
pIC50: −log10 of the molar value.
readout_kind: pIC50

>  <compound>
C[C@H](CCC(=O)NCc1ccc(C(=O)NO)cc1)[C@H]1CC[C@H]2[C@@H]3[C@@H](O)C[C@@H]4C[C@H](O)CC[C@]4(C)[C@H]3CC[C@]12C [Compound Ia]

>  <numeric_result>
4.78

$$$$

----------
melting point values for the compounds below.

>  <molecule_smiles>
C[C@H](CCC(=O)NCc1ccc(C(=O)NCc2ccc(C(=O)NO)cc2)cc1)[C@H]1CC[C@H]2[C@@H]3[C@@H](O)C[C@@H]4C[C@H](O)CC[C@]4(C)[C@H]3CC[C@]12C

>  <melting point>
187 to 189 °C

$$$$
>  <molecule_smiles>
C[C@H](CCC(=O)NCCC(=O)NO)[C@H]1CC[C@H]2[C@@H]3[C@@H](O)C[C@@H]4C[C@H](O)CC[C@]4(C)[C@H]3CC[C@]12C

>  <melting point>
180 to 182 °C

$$$$
>  <molecule_smiles>
C[C@H](CCC(=O)NCC(=O)NCc1ccc(C(=O)NO)cc1)[C@H]1CC[C@H]2[C@@H]3[C@@H](O)C[C@@H]4C[C@H](O)CC[C@]4(C)[C@H]3CC[C@]12C

>  <melting point>
153 to 155 °C

$$$$
>  <molecule_smiles>
C[C@H](CCC(=O)NCc1ccc(C(=O)NO)o1)[C@H]1CC[C@H]2[C@@H]3[C@@H](O)C[C@@H]4C[C@H](O)CC[C@]4(C)[C@H]3CC[C@]12C

>  <melting point>
149 to 151 °C

$$$$
>  <molecule_smiles>
C[C@H](NC(=O)CC[C@@H](C)[C@H]1CC[C@H]2[C@@H]3[C@@H](O)C[C@@H]4C[C@H](O)CC[C@]4(C)[C@H]3CC[C@]12C)C(=O)NO

>  <melting point>
170 to 172 °C

$$$$

----------
Reported IC50 for target or system human HDAC1 (Homo sapiens), by entry.

>  <molecule_smiles>
C[C@H](CCC(=O)NCCCCCC(=O)NO)[C@H]1CC[C@H]2[C@@H]3[C@@H](O)C[C@@H]4C[C@H](O)CC[C@]4(C)[C@H]3CC[C@]12C

>  <IC50>
2.57 µM

$$$$
>  <molecule_smiles>
C[C@H](CCC(=O)NCC(=O)NCc1ccc(C(=O)NO)cc1)[C@H]1CC[C@H]2[C@@H]3[C@@H](O)C[C@@H]4C[C@H](O)CC[C@]4(C)[C@H]3CC[C@]12C

>  <IC50>
9.01 µM

$$$$
>  <molecule_smiles>
C[C@H](CCC(=O)NCc1ccc(C(=O)Nc2ccccc2N)cc1)[C@H]1CC[C@H]2[C@@H]3[C@@H](O)C[C@@H]4C[C@H](O)CC[C@]4(C)[C@H]3CC[C@]12C

>  <IC50>
0.14 µM

$$$$
>  <molecule_smiles>
C[C@H](CCC(=O)NCc1ccc(C(=O)NO)cc1)[C@H]1CC[C@H]2[C@@H]3[C@@H](O)C[C@@H]4C[C@H](O)CC[C@]4(C)[C@H]3CC[C@]12C

>  <IC50>
10.1 µM

$$$$
>  <molecule_smiles>
C[C@H](CCC(=O)NCc1ccc(C(=O)NCc2ccc(C(=O)NO)cc2)cc1)[C@H]1CC[C@H]2[C@@H]3[C@@H](O)C[C@@H]4C[C@H](O)CC[C@]4(C)[C@H]3CC[C@]12C

>  <IC50>
15.2 µM

$$$$
